Exercise: state measured IC50 for each of the compounds provided.
Tested on: HCT-116
EXPERIMENTAL DETAILS: cells
CONDITION SUMMARY: Homo sapiens, HCT-116, 72 h
Description: Antiproliferative activity against p53+/+ human HCT116 cells after 72 hrs by CellTiter 96 aqueous one solution assay

Check out these entries, answers already filled in.
STRUCTURE AS SMILES	OBSERVED RESULT
COc1ccccc1/C=C/c1nc(Nc2ccccc2Cl)c2ccccc2n1	> 25 µM
CCCCOc1ccc(/C=C/c2nc3ccccc3c(=O)[nH]2)cc1	> 25 µM

Kindly give each listed record's IC50.
1. COc1ccccc1/C=C/c1nc(Nc2ccc3c(c2)OCO3)c2ccccc2n1
2. COc1ccccc1/C=C/c1nc2ccccc2c(=O)[nH]1

[reply]
1. 15.9 µM
2. 2.47 µM

Kindly give each listed record's IC50.
1. CC(=O)Oc1cccc(/C=C/c2nc3ccccc3c(=O)[nH]2)c1
2. CC(=O)Oc1ccccc1/C=C/c1nc2ccccc2c(=O)[nH]1

[reply]
["15.3 µM", "> 25 µM"]
